Provide the recorded AIRE transcriptional activation functional score for the entries that follow.
B1: library; numbered along this chain (parent)
chain: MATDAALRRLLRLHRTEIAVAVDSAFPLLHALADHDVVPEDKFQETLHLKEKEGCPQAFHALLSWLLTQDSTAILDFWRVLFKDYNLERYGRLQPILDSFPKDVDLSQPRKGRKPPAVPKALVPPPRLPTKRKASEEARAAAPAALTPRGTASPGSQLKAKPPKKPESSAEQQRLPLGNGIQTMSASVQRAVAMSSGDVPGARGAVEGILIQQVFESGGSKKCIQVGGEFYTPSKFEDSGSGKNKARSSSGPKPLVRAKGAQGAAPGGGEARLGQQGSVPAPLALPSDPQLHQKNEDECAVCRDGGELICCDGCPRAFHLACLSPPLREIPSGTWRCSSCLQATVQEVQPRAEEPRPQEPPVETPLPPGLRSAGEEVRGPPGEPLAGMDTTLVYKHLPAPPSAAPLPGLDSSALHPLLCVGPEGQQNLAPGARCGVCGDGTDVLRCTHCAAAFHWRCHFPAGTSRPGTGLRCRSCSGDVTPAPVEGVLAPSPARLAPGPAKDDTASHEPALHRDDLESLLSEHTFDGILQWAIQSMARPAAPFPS

variants of: B1; assay: AIRE transcriptional activation functional score (insulin promoter-GFP; nonsense median 0, synonymous median 1) (normalised score); higher = higher AIRE activity (more reporter activation); conditions: with insulin promoter-GFP reporter in HEK293
Enter the number alone.

IN: Consider the variant shown here: E347T What is its recorded AIRE transcriptional activation functional score?
OUT: 1.26

IN: Further, for A25R ?
OUT: 0.337

IN: Further, for K161Y ?
OUT: 0.674

IN: Further, for A121R ?
OUT: 0.922

IN: Further, for L285C ?
OUT: 0.894

IN: Further, for C437Q ?
OUT: 0.296

IN: Further, for K259L ?
OUT: 0.941

IN: Further, for L529W ?
OUT: 1.39

IN: Further, for L406N ?
OUT: 1.18

IN: Further, for G462M ?
OUT: -0.0181

IN: Further, for V226M ?
OUT: 0.67
